Kindly state abundance fitness for each of the entries shown.
B1: Zinc finger homeobox protein 3, residues 2244 to 2299; numbered along this chain, Q15911 (parent)
chain: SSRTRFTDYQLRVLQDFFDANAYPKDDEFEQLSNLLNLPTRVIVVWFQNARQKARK

Variants of: B1
assay-explanation: abundance fitness (aPCA) (normalised: wild type 0, dead -1); higher = more abundant; growth selection in yeast, the domain comes from the species named
condition: Homo sapiens
Numbers only.

INSERT INTO measurements (sequence_string, observed_result) VALUES
  ('SSRTRFTDYQHRVLQDFFDANAYPKDDEFEQLSNLLNLPTRVIVVWFQNARQKARK', -0.203),
  ('SSRARFTDYQLRVLQDFFDANAYPKDDEFEQLSNLLNLPTRVIVVWFQNARQKARK', -0.883),
  ('SSRTRFTDYQLRVLQDFFDANAYPKDDEFEQLSNLLNLPGRVIVVWFQNARQKARK', -0.208),
  ('SSRTRFTDYQLRVLQDFFDANAYPKDDEFEQLSNLLNLPDRVIVVWFQNARQKARK', -0.356),
  ('SSRTRFTDYQLRVLQDFMDANAYPKDDEFEQLSNLLNLPTRVIVVWFQNARQKARK', -0.298),
  ('SSRTRFFDYQLRVLQDFFDANAYPKDDEFEQLSNLLNLPTRVIVVWFQNARQKARK', -0.725),
  ('SSRTRLTDYQLRVLQDFFDANAYPKDDEFEQLSNLLNLPTRVIVVWFQNARQKARK', -0.321),
  ('SSRTRFTDYQLRVLQDFFDANAYPKDDEFEQLSNLLNLPIRVIVVWFQNARQKARK', -0.175);

// input: 6 variants below; output: abundance fitness for each
1. SSRTRFTDYQLRVLQDFFDANAYPPDDEFEQLSNLLNLPTRVIVVWFQNARQKARK
2. SSRTWFTDYQLRVLQDFFDANAYPKDDEFEQLSNLLNLPTRVIVVWFQNARQKARK
3. SSRTRFTDYQLRVLQQFFDANAYPKDDEFEQLSNLLNLPTRVIVVWFQNARQKARK
4. SSRTRFTDYQLRVLQDFFDANAYPKDTEFEQLSNLLNLPTRVIVVWFQNARQKARK
5. SSRTRFTDYQLRVLQDFFDANAYPKDDEFEQLSNLPNLPTRVIVVWFQNARQKARK
6. SSRTRFTDYQLRVLQDFFDRNAYPKDDEFEQLSNLLNLPTRVIVVWFQNARQKARK

-0.228
0.234
-0.035
-0.078
-1.06
0.075

List abundance fitness for every entry below, keeping the order given.
1. SSRTRFTDYQLRVLQDFFDANAYPKDDEFEQLDNLLNLPTRVIVVWFQNARQKARK
2. SSRTRFTDYQLRVLQGFFDANAYPKDDEFEQLSNLLNLPTRVIVVWFQNARQKARK

1. -0.833
2. -0.023
